Test: physchem
Conditions: hplc
reported.property: chromatographic logP

C=CC(=O)OCCCCCCOc1ccc(C(=O)Oc2ccc(/C=N/N=C/c3ccc(OC(=O)c4ccc(OCCCCCCOC(=O)C=C)cc4)c(C(=O)OC)c3)cc2)cc1	6.01

* * *

Assay: physchem
reported.property: chromatographic logP

C=CC(=O)OCCCCOC(=O)Oc1ccc(C(=O)Oc2ccc(C(=O)O[C@H]3CO[C@@H]4[C@H]3OC[C@H]4OC(=O)c3ccc(OC(=O)c4ccc(OC(=O)OCCCCOC(=O)C=C)cc4)cc3)cc2)cc1	3.58
C=CC(=O)OCCCCCCCCOC(=O)Oc1ccc(C(=O)Oc2ccc(OC(=O)c3ccc(OC(=O)OCCCCCCCCOC(=O)C=C)cc3)c(C)c2)cc1	5.11
C=CC(=O)OCCOc1ccc(-c2ccc(C#N)cc2)cc1	1.75

Just for reference, patent EP4292827A1 is where these values come from.
